Test system: Vero E6 cells
recorded conditions: monkey
Residues, ends and D or L forms follow the SMILES beside them. *: point of attachment. Cbz = O=C(OCc1ccccc1)*; CH2F = FC*
This listing pairs compounds with measured Concentration at Maximum % Viability.
Give the number; nM is assumed, so skip it.

Incoming: Consider the compound Oc1c(Cl)cc(Cl)c2cccnc12 [CLCQ, 5,7-dichloro-8-hydroxyquinoline] tested on Vero E6 cells; state its Concentration at Maximum % Viability.
Outgoing: 60

Incoming: Report the value of Concentration at Maximum % Viability obtained on Vero E6 cells for CCN(CCO)CCCC(C)Nc1ccnc2cc(Cl)ccc12 (centres unmarked) [Hydroxychloroquine] .
Outgoing: 60

Incoming: Report Concentration at Maximum % Viability under test system Vero E6 cells for CCOC(=O)[C@H]1O[C@@H]1C(=O)N[C@@H](CC(C)C)C(=O)NCCC(C)C [E64d (Aloxistatin), Aloxistatin] .
Outgoing: 120

Incoming: Find Concentration at Maximum % Viability for CC(C)C[C@H](NC(=O)OCc1ccccc1)C(=O)N[C@@H](CC(C)C)C(=O)N[C@@H](Cc1ccc(O)cc1)C(=O)CF [Calpain Inhibitor IV] (Cbz-Leu-Leu-Tyr-CH2F) on Vero E6 cells and write it down.
Outgoing: 220

###

tested system: rhACE2 - SARS-CoV-2 Spike (RBD) protein interaction (Homo sapiens, UniProt Q9BYF1)
Sequence (Q9BYF1 18-740): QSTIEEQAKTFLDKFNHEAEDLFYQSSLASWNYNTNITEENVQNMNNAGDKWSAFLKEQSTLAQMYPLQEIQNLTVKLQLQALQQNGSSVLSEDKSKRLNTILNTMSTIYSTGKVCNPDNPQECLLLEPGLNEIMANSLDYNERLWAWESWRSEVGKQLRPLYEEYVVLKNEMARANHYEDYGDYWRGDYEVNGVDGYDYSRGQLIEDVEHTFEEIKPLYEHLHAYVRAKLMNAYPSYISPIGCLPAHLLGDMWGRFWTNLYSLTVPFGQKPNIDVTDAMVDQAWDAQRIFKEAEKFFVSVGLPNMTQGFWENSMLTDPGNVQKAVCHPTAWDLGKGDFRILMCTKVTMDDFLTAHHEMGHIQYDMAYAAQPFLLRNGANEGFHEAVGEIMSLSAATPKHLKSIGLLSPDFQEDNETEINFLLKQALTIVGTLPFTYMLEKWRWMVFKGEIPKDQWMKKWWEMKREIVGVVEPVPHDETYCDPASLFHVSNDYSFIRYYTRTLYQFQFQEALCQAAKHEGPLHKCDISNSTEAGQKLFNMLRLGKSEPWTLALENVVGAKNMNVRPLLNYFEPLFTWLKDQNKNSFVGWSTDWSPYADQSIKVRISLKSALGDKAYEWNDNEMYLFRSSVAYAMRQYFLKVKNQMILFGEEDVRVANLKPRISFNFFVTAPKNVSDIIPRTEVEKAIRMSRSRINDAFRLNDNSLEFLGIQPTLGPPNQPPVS
experimental protocol: biochemical
Format: binding, human; SARS-CoV-2
recorded conditions: Spike (RBD)-ACE2 Interaction Assay IC50_1
IC50 values, listed per item

| compound | IC50 |
| --- | --- |
| Oc1c(Cl)cc(Cl)c2cccnc12 [CLCQ, 5,7-dichloro-8-hydroxyquinoline] | 1740 nM |
| Oc1c(Br)cc(Cl)c2cccnc12 [CLBQ14, 7-bromo-5-chloro-8-hydroxyquinoline] | 2760 nM |

Consider the additional compound presented here.
Incoming: Supply reported IC50 belonging to this compound: "Oc1c(I)cc(Cl)c2cccnc12"
Outgoing: 850 nM

###

tested system: recombinant human ACE2 (rhACE2) (Homo sapiens)
Sequence (Q9BYF1 18-805): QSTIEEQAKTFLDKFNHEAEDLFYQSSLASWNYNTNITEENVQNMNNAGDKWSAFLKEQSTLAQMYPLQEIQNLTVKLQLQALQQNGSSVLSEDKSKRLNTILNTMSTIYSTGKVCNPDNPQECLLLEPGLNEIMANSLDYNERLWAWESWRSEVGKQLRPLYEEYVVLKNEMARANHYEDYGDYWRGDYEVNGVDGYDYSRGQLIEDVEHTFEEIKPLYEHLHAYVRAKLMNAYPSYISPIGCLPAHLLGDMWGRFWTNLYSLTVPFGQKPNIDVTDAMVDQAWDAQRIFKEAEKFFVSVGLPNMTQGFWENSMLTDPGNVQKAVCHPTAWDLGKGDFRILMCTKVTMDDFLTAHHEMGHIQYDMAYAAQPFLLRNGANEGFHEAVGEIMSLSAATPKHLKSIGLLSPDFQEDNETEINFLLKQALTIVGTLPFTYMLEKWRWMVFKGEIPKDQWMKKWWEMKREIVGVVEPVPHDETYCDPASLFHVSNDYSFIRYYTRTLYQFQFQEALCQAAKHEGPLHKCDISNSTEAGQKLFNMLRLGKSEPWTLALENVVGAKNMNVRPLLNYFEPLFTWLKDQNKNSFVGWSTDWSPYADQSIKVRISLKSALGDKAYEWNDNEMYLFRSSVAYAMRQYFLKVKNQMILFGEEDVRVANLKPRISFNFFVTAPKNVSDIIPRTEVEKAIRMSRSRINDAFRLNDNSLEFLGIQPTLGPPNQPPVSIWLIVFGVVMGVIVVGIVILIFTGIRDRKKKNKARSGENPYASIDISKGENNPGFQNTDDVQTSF
experimental protocol: ACE2 inhibitor screening assay
measure: IC50 (µM)
Answer in µM, number only, no unit symbol.

Incoming: Answer briefly: IC50 recorded on recombinant human ACE2 (rhACE2) (Homo sapiens) for Oc1c(Br)cc(Cl)c2cccnc12 [CLBQ14, 7-bromo-5-chloro-8-hydroxyquinoline]
Outgoing: 5.55

###

experimental protocol: in vitro
recorded conditions: African green monkey, Minimum Viability (%)
viability for assorted compounds
A number alone suffices; assume %.

// solved cases for viability follow
| compound | test value |
| --- | --- |
| CCC(CC)COC(=O)[C@H](C)N[P@](=O)(OC[C@H]1O[C@@](C#N)(c2ccc3c(N)ncnn23)[C@H](O)[C@@H]1O)Oc1ccccc1 | 97.5 |
| Oc1c(Br)cc(Cl)c2cccnc12 [CLBQ14, 7-bromo-5-chloro-8-hydroxyquinoline] | 53.5 |
| CCOC(=O)[C@H]1O[C@@H]1C(=O)N[C@@H](CC(C)C)C(=O)NCCC(C)C [E64d (Aloxistatin), Aloxistatin] | 100 |
| Oc1c(Cl)cc(Cl)c2cccnc12 [CLCQ, 5,7-dichloro-8-hydroxyquinoline] | 60.8 |
| CCN(CC)CCCC(C)Nc1ccnc2cc(Cl)ccc12 (stereo not shown) | 95.6 |

Incoming: Give a short answer stating reported viability for "Oc1c(I)cc(Cl)c2cccnc12" .
Outgoing: 61.8

Incoming: Please supply the value of reported viability for the item CCN(CCO)CCCC(C)Nc1ccnc2cc(Cl)ccc12 (stereo not shown) [Hydroxychloroquine]
Outgoing: 96.9

###

Tested on: Vero E6 cells
recorded conditions: African green monkey
measure: Concentration at Minimum % Viability (µM)
The answer is to be given in µM; state only the numeric part.

These recorded examples may help you get a feel for the data.
| compound | tested system | Concentration at Minimum % Viability [µM] |
| --- | --- | --- |
| CCC(CC)COC(=O)[C@H](C)N[P@](=O)(OC[C@H]1O[C@@](C#N)(c2ccc3c(N)ncnn23)[C@H](O)[C@@H]1O)Oc1ccccc1 | Vero E6 cells | 3.75 |
| CCN(CCO)CCCC(C)Nc1ccnc2cc(Cl)ccc12 (stereo not shown) [Hydroxychloroquine] | Vero E6 cells | 3.75 |
| CCOC(=O)[C@H]1O[C@@H]1C(=O)N[C@@H](CC(C)C)C(=O)NCCC(C)C [E64d (Aloxistatin), Aloxistatin] | Vero E6 cells | 15.00 |
| Oc1c(I)cc(Cl)c2cccnc12 | Vero E6 cells | 30.00 |
| CCN(CC)CCCC(C)Nc1ccnc2cc(Cl)ccc12 (stereo not shown) | Vero E6 cells | 15.00 |

Incoming: Enter recorded Concentration at Minimum % Viability with Vero E6 cells for Oc1c(Br)cc(Cl)c2cccnc12 [CLBQ14, 7-bromo-5-chloro-8-hydroxyquinoline] here.
Outgoing: 15.00

Incoming: Look up and report Concentration at Minimum % Viability, with Vero E6 cells as system, for Oc1c(Cl)cc(Cl)c2cccnc12 [CLCQ, 5,7-dichloro-8-hydroxyquinoline]
Outgoing: 15.00

###

experimental protocol: in vitro
recorded conditions: African green monkey, Maximum Viability (%)
viability reference
Numbers only here, please. The scale is %.

Consider the worked cases shown below.
| compound | measure | test value |
| --- | --- | --- |
| CCC(CC)COC(=O)[C@H](C)N[P@](=O)(OC[C@H]1O[C@@](C#N)(c2ccc3c(N)ncnn23)[C@H](O)[C@@H]1O)Oc1ccccc1 | viability | 104 |
| CCOC(=O)[C@H]1O[C@@H]1C(=O)N[C@@H](CC(C)C)C(=O)NCCC(C)C [E64d (Aloxistatin), Aloxistatin] | viability | 113 |
| CCN(CCO)CCCC(C)Nc1ccnc2cc(Cl)ccc12 (stereo not shown) [Hydroxychloroquine] | viability | 104 |

Incoming: Give the reported value of viability for this record: Oc1c(Cl)cc(Cl)c2cccnc12 [CLCQ, 5,7-dichloro-8-hydroxyquinoline]
Outgoing: 102

Incoming: Note down viability recorded for Oc1c(Br)cc(Cl)c2cccnc12 [CLBQ14, 7-bromo-5-chloro-8-hydroxyquinoline]
Outgoing: 108

Incoming: Quickly give me recorded viability for CCN(CC)CCCC(C)Nc1ccnc2cc(Cl)ccc12 (stereo not shown)
Outgoing: 107

Incoming: For "Oc1c(I)cc(Cl)c2cccnc12" , write its viability.
Outgoing: 106

###

This section presents compounds with their documented pIC50 values.
tested system: rhACE2 - SARS-CoV-2 Spike (RBD) protein interaction (Homo sapiens)
experimental protocol: biochemical
Format: binding, human; SARS-CoV-2
recorded conditions: Spike (RBD)-ACE2 Interaction Assay IC50_2
# pIC50: negative log10 of molar concentration; output just the value

| compound | pIC50 |
| --- | --- |
| Oc1c(Br)cc(Cl)c2cccnc12 [CLBQ14, 7-bromo-5-chloro-8-hydroxyquinoline] | 5.51 |

Let us move to another entry and its pIC50.
Incoming: Specify measured pIC50 for Oc1c(Cl)cc(Cl)c2cccnc12 [CLCQ, 5,7-dichloro-8-hydroxyquinoline] .
Outgoing: 5.72

###

experimental protocol: in vitro
recorded conditions: African green monkey
measure: CC50

Look over these answered cases.
| compound | CC50 |
| --- | --- |
| Oc1c(Cl)cc(Cl)c2cccnc12 [CLCQ, 5,7-dichloro-8-hydroxyquinoline] | > 30 µM |
| CCC(CC)COC(=O)[C@H](C)N[P@](=O)(OC[C@H]1O[C@@](C#N)(c2ccc3c(N)ncnn23)[C@H](O)[C@@H]1O)Oc1ccccc1 | > 30 µM |
| Oc1c(Br)cc(Cl)c2cccnc12 [CLBQ14, 7-bromo-5-chloro-8-hydroxyquinoline] | > 30 µM |
| CCN(CCO)CCCC(C)Nc1ccnc2cc(Cl)ccc12 (stereo not shown) [Hydroxychloroquine] | > 30 µM |
| CCOC(=O)[C@H]1O[C@@H]1C(=O)N[C@@H](CC(C)C)C(=O)NCCC(C)C [E64d (Aloxistatin), Aloxistatin] | > 30 µM |

Incoming: Determine from records and report CC50 for "Oc1c(I)cc(Cl)c2cccnc12"
Outgoing: > 30 µM

Incoming: Hello, please tell me recorded CC50 for this one: CCN(CC)CCCC(C)Nc1ccnc2cc(Cl)ccc12 (stereo not shown)
Outgoing: > 30 µM

###

System: Vero E6 cells
recorded conditions: monkey
measure: Concentration at Maximum % Viability (nM)
Expressed in nM, but write only the number.

Past entries and their recorded results:
| compound | tested system | Concentration at Maximum % Viability / nM |
| --- | --- | --- |
| Oc1c(I)cc(Cl)c2cccnc12 [CLQ, 5-chloro-7-iodo-8-quinolinol] | Vero E6 cells | 230 |
| CCN(CC)CCCC(C)Nc1ccnc2cc(Cl)ccc12 (stereo not shown) [Chloroquine] | Vero E6 cells | 60 |
| Oc1c(Br)cc(Cl)c2cccnc12 [CLBQ14, 7-bromo-5-chloro-8-hydroxyquinoline] | Vero E6 cells | 120 |

Incoming: Name the recorded Concentration at Maximum % Viability of the compound listed here: CCC(CC)COC(=O)[C@H](C)N[P@](=O)(OC[C@H]1O[C@@](C#N)(c2ccc3c(N)ncnn23)[C@H](O)[C@@H]1O)Oc1ccccc1 [Remdesivir]
Outgoing: 60
